testedOn: Epidermal growth factor receptor (Homo sapiens, UniProt P00533, T790M)
Sequence (P00533 25-1210 T790M limits assumed): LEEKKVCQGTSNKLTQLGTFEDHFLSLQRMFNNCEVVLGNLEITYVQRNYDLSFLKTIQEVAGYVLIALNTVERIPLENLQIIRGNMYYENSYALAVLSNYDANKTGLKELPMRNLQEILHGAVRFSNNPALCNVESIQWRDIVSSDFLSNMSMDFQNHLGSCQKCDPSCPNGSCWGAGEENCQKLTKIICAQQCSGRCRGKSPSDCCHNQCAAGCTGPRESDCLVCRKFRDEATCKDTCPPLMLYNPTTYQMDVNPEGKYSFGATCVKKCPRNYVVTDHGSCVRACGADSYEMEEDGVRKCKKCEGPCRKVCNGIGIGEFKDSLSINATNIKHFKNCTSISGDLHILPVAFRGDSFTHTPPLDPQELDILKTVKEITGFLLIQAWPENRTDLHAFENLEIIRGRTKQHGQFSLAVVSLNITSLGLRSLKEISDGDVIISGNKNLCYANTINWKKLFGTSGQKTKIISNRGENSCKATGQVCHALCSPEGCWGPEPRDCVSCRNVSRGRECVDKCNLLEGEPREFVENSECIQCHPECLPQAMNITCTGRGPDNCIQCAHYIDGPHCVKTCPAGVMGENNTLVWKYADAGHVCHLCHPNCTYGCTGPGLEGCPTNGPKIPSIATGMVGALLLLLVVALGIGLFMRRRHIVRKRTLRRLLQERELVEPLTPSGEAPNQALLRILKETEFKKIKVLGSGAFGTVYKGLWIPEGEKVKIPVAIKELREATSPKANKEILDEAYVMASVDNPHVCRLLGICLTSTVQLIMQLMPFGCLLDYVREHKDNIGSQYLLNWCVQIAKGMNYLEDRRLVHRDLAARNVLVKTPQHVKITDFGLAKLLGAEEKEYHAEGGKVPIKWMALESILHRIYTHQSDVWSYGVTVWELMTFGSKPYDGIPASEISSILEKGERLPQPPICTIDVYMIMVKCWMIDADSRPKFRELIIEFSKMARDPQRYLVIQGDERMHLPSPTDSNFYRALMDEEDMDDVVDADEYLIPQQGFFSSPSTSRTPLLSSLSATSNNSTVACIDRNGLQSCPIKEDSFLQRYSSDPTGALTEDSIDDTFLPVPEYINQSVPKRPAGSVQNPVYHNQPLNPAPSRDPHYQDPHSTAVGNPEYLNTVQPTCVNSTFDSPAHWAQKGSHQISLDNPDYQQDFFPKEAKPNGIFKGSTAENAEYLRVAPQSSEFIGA
runDescription: Inhibition of […] EGFR T790M mutant (unknown origin) pretreated with substrate for 10 mins followed by ATP addition measured after 60 mins by mobility shift assay
measuredParameter: IC50

{"columns": ["molecularString", "IC50"],
 "data": [
  ["C=CC(=O)Nc1cccc(Oc2nc(Nc3ccc(N4CCN(C)CC4)c([N+](=O)[O-])c3)nc3[nH]ccc23)c1", "> 10 µM"]
]}

Now take the following molecule into account.
Requested read-out: IC50. Entry: "C=CC(=O)Nc1cccc(Oc2nc(Nc3ccc(N4CCN(C)CC4)c(N)c3)nc3[nH]ccc23)c1"
> 10 µM

====

Test system: Epidermal growth factor receptor (Homo sapiens), P00533 [L858R,T790M]
Sequence (P00533 whole entry T790M/L858R, looked up): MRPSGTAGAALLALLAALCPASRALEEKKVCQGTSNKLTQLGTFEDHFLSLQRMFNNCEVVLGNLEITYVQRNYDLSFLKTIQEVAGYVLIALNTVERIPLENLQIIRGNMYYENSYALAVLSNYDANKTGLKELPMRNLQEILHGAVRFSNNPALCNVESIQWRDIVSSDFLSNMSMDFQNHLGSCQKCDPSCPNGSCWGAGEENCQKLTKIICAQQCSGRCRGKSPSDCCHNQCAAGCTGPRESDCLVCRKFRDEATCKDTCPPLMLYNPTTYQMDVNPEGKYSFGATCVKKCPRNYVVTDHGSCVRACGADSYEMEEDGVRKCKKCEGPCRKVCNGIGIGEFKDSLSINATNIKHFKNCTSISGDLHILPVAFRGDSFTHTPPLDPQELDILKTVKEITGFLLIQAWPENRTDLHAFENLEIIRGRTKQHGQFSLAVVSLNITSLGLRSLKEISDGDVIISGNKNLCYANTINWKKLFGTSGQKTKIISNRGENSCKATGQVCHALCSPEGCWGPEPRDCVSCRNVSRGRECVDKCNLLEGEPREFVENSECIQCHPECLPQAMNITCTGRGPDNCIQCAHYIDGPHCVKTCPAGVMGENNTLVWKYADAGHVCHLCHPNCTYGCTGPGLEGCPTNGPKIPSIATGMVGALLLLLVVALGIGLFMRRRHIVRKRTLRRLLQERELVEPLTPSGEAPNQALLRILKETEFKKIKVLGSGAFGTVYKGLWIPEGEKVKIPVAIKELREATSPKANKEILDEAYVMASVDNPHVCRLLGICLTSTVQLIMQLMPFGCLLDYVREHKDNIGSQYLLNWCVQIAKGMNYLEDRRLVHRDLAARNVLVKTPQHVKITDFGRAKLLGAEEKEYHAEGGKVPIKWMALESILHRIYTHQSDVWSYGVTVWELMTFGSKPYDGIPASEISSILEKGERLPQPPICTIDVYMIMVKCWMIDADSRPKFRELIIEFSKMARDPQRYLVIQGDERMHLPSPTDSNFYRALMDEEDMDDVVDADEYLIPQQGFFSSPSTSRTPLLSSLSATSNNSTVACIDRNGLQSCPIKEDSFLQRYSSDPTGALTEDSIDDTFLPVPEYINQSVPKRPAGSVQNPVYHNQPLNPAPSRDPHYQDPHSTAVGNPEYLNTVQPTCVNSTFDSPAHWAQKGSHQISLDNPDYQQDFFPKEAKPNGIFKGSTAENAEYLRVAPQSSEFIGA
runDescription: Inhibition of […] EGFR L858R/T790M mutant (unknown origin) at 2 nM pretreated with substrate for 10 mins followed by ATP addition measured after 60 mins by mobility shift assay relative to control
Collected inhibition values appear next to each entry.
Please give a number only; it is taken to be in %.

For orientation, consider the following solved cases.
{"columns": ["molecularString", "testedOn", "inhibition [%]"],
 "data": [
  ["C=CC(=O)Nc1cccc(Oc2nc(Nc3ccc(N4CCN(C)CC4)c([N+](=O)[O-])c3)nc3c2ccn3COC(=O)C(C)(C)C)c1", "Epidermal growth factor receptor (Homo sapiens), P00533 [L858R,T790M]", 3.5],
  ["C=CC(=O)Nc1cccc(Oc2nc(Nc3ccc(N4CCN(C)CC4)c(Cl)c3)nc3[nH]ccc23)c1", "Epidermal growth factor receptor (Homo sapiens), P00533 [L858R,T790M]", 92],
  ["C=CC(=O)Nc1cccc(Oc2nc(Nc3ccc(N4CCN(C)CC4)c([N+](=O)[O-])c3)nc3[nH]ccc23)c1", "Epidermal growth factor receptor (Homo sapiens), P00533 [L858R,T790M]", 49]
]}

Name the reported inhibition value associated with the compound "C=CC(=O)Nc1cccc(Oc2nc(Nc3ccc(N4CCN(C)CC4)c(N)c3)nc3[nH]ccc23)c1"
85

I am curious: what inhibition value has been reported for "C=CC(=O)Nc1cccc(Oc2nc(Nc3ccc(N4CCN(C)CC4)c(OC)c3)nc3[nH]ccc23)c1" ?
42

Value lookup for inhibition; key = "C=CC(=O)Nc1cccc(Oc2nc(Nc3ccc(N4CCN(C)CC4)c(N)c3)nc3c2ccn3COC(=O)C(C)(C)C)c1"
2.4

====

Tested on: Epidermal growth factor receptor (Homo sapiens), P00533 [L858R]
Sequence (P00533 whole entry L858R): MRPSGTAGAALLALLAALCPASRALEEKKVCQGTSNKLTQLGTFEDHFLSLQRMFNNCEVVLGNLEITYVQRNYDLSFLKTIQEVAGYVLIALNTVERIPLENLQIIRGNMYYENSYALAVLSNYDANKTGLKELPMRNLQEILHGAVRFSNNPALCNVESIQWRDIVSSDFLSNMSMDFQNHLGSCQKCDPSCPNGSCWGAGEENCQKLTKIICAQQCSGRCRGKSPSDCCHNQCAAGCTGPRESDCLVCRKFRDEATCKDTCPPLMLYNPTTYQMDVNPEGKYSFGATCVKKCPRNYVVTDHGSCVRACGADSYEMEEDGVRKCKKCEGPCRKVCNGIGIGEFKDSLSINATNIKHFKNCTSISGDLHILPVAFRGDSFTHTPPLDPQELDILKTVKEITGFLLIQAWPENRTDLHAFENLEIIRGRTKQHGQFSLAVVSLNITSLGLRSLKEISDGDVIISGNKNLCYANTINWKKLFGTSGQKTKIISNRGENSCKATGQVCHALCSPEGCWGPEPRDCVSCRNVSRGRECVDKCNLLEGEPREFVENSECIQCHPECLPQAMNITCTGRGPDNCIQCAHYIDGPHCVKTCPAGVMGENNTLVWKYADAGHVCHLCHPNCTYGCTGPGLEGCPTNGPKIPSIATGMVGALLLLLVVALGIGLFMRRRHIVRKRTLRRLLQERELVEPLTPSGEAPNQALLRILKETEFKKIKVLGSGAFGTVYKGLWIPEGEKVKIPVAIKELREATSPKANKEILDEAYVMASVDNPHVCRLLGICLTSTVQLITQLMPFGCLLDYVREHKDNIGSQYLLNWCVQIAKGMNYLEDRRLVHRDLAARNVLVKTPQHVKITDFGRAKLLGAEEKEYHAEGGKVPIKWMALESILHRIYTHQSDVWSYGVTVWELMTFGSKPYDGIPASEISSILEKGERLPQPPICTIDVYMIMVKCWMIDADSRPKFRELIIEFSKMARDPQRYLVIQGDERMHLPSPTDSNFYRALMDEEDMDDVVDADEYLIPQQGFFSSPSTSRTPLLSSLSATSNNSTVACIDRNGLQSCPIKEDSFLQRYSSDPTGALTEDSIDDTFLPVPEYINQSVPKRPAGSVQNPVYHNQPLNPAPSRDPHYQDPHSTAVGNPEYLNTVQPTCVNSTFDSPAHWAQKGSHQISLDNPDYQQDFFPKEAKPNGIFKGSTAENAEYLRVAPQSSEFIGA
runDescription: Inhibition of […] EGFR L858R mutant (unknown origin) at 2 nM pretreated with substrate for 10 mins followed by ATP addition measured after 60 mins by mobility shift assay relative to control
inhibition values by entry
Express it in %; write the number only.

Observe how each entry below is paired with its result.
{"columns": ["molecularString", "valueObserved"],
 "data": [
  ["C=CC(=O)Nc1cccc(Oc2nc(Nc3ccc(N4CCN(C)CC4)c(Cl)c3)nc3[nH]ccc23)c1", 41],
  ["C=CC(=O)Nc1cccc(Oc2nc(Nc3ccc(N4CCN(C)CC4)c(N)c3)nc3[nH]ccc23)c1", 40],
  ["C=CC(=O)Nc1cccc(Oc2nc(Nc3ccc(N4CCN(C)CC4)c(OC)c3)nc3[nH]ccc23)c1", 31],
  ["C=CC(=O)Nc1cccc(Oc2nc(Nc3ccc(N4CCN(C)CC4)c(N)c3)nc3c2ccn3COC(=O)C(C)(C)C)c1", 9.7],
  ["C=CC(=O)Nc1cccc(Oc2nc(Nc3ccc(N4CCN(C)CC4)c([N+](=O)[O-])c3)nc3[nH]ccc23)c1", 19]
]}

Switching to the query record.
Item under review: "C=CC(=O)Nc1cccc(Oc2nc(Nc3ccc(N4CCN(C)CC4)c([N+](=O)[O-])c3)nc3c2ccn3COC(=O)C(C)(C)C)c1" . Reported inhibition?
13

====

runDescription: Potency index, ratio of avitinib IC50 to test compound IC50 for cytotoxicity against human HBE cells assessed as reduction in cell viability measured after 48 hrs by CCK8 assay
Assay type: cell-based
settings: read-out: Ratio IC50
measuredParameter: selectivity ratio at 48 h

I would be grateful if you could share the reported selectivity ratio at 48 h for "C=CC(=O)Nc1cccc(Oc2nc(Nc3ccc(N4CCN(C)CC4)c(N)c3)nc3[nH]ccc23)c1" .
2

====

Below: a set of entries, each annotated with reported IC50.
System: BEAS-2B
runDescription: Cytotoxicity against human BEAS-2B cells assessed as reduction in cell viability measured after 48 hrs by CCK8 assay
Format: cell-based
Output spec: scalar in µM, unitless text.

Past entries and their recorded results:
{"columns": ["molecularString", "valueObserved"],
 "data": [
  ["C=CC(=O)Nc1cccc(Oc2nc(Nc3ccc(N4CCN(C)CC4)c(N)c3)nc3c2ccn3COC(=O)C(C)(C)C)c1", 9.54],
  ["C=CC(=O)Nc1cccc(Oc2nc(Nc3ccc(N4CCN(C)CC4)c(OC)c3)nc3[nH]ccc23)c1", 9.89],
  ["C=CC(=O)Nc1cccc(Oc2nc(Nc3ccc(N4CCN(C)CC4)c(Cl)c3)nc3[nH]ccc23)c1", 3.8],
  ["C=CC(=O)Nc1cccc(Oc2nc(Nc3ccc(N4CCN(C)CC4)c(N)c3)nc3[nH]ccc23)c1", 7.8],
  ["C=CC(=O)Nc1cccc(Oc2nc(Nc3ccc(N4CCN(C)CC4)c([N+](=O)[O-])c3)nc3[nH]ccc23)c1", 3.68]
]}

// map "C=CC(=O)Nc1cccc(Oc2nc(Nc3ccc(N4CCN(C)CC4)c(F)c3)nc3[nH]ccc23)c1" to recorded IC50 (system: BEAS-2B)
3.68

Reported IC50 for BEAS-2B, given "C=CC(=O)Nc1cccc(Oc2nc(Nc3ccc(N4CCN(C)CC4)cc3)nc3[nH]ccc23)c1" ?
23.8

Form entry - test system: BEAS-2B; read-out: IC50; molecule: "C=CC(=O)Nc1cccc(Oc2nc(Nc3ccc(N4CCN(C)CC4)c([N+](=O)[O-])c3)nc3c2ccn3COC(=O)C(C)(C)C)c1"
5.73

====

Test system: Epidermal growth factor receptor (Homo sapiens), P00533 [C797S]
Sequence (P00533 whole entry C797S): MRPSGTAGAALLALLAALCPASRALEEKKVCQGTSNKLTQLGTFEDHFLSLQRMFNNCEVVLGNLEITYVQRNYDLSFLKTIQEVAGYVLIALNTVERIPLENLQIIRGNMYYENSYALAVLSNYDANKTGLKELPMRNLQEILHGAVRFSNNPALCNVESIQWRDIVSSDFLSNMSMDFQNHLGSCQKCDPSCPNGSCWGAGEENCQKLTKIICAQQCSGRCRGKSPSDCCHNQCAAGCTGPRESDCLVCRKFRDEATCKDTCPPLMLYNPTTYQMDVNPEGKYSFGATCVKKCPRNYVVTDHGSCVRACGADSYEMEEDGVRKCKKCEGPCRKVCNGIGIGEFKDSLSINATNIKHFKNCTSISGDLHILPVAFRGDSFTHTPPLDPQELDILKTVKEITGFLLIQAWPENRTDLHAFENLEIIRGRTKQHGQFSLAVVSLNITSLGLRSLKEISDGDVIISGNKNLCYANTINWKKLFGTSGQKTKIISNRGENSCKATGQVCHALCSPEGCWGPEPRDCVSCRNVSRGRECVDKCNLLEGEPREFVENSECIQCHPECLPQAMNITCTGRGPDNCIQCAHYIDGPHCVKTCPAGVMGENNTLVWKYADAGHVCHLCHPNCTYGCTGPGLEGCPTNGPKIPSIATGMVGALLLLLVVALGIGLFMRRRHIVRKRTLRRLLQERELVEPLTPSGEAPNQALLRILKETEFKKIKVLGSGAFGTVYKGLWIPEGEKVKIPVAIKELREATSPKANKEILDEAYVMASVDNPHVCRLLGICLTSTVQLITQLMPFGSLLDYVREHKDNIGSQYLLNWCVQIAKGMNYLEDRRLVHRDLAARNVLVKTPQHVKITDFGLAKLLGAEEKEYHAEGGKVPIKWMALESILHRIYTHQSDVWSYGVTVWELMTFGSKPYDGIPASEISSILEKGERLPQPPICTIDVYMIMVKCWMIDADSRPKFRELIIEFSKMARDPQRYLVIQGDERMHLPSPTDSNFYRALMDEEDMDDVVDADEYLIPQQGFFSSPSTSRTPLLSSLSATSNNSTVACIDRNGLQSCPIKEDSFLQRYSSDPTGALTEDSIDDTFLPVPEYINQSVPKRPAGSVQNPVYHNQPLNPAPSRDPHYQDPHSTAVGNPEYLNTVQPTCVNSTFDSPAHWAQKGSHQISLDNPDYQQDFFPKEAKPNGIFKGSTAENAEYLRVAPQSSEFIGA
runDescription: Inhibition of […] EGFR C797S mutant (unknown origin) at 2 nM pretreated with substrate for 10 mins followed by ATP addition measured after 60 mins by mobility shift assay relative to control
Form field: inhibition (one value per entry).
A number alone suffices; assume %.

Some solved entries appear below for comparison.
{"columns": ["molecularString", "measuredParameter", "valueObserved"],
 "data": [
  ["C=CC(=O)Nc1cccc(Oc2nc(Nc3ccc(N4CCN(C)CC4)c(N)c3)nc3[nH]ccc23)c1", "inhibition", 16],
  ["C=CC(=O)Nc1cccc(Oc2nc(Nc3ccc(N4CCN(C)CC4)c(Cl)c3)nc3[nH]ccc23)c1", "inhibition", 4.8],
  ["C=CC(=O)Nc1cccc(Oc2nc(Nc3ccc(N4CCN(C)CC4)c(OC)c3)nc3[nH]ccc23)c1", "inhibition", 13],
  ["C=CC(=O)Nc1cccc(Oc2nc(Nc3ccc(N4CCN(C)CC4)c(N)c3)nc3c2ccn3COC(=O)C(C)(C)C)c1", "inhibition", 2.2],
  ["C=CC(=O)Nc1cccc(Oc2nc(Nc3ccc(N4CCN(C)CC4)c([N+](=O)[O-])c3)nc3c2ccn3COC(=O)C(C)(C)C)c1", "inhibition", 6.3]
]}

Next:
Need inhibition of "C=CC(=O)Nc1cccc(Oc2nc(Nc3ccc(N4CCN(C)CC4)c([N+](=O)[O-])c3)nc3[nH]ccc23)c1" , thanks.
3.7

====

runDescription: Potency index, ratio of avitinib IC50 to test compound IC50 for cytotoxicity against human BEAS-2B cells assessed as reduction in cell viability measured after 48 hrs by CCK8 assay
Assay type: cell-based
settings: read-out: Ratio IC50
measuredParameter: selectivity ratio at 48 h
Number, no unit, nothing else.

If you can, please state the reported selectivity ratio at 48 h value of "C=CC(=O)Nc1cccc(Oc2nc(Nc3ccc(N4CCN(C)CC4)c(N)c3)nc3[nH]ccc23)c1" .
2

Just for reference, ChEMBL document CHEMBL4828722 is where these values come from.
